Below, each of the compounds is paired with its reported melting point value.

Completed entries (count: 5):
COMPOUND: CNC(=O)c1ccc(-c2ccc3oc(C4CCN(C(=O)OC(C)C)CC4)nc3c2)cc1F [EXAMPLE-42]
ENDPOINT_NAME: melting point
ENDPOINT_RESULT: 116 to 120 °C

COMPOUND: CNC(=O)c1ccc(-c2ccc3oc(C4CCN(C(=O)OC(C)C)CC4)nc3c2)cc1C [EXAMPLE-49]
ENDPOINT_NAME: melting point
ENDPOINT_RESULT: 151 to 154 °C

COMPOUND: CNC(=O)c1ccc(-c2ccc3oc(C4CCN(C(=O)OC(C)C)CC4)nc3c2)cn1 [EXAMPLE-48]
ENDPOINT_NAME: melting point
ENDPOINT_RESULT: 158 to 161 °C

COMPOUND: CC(C)OC(=O)N1CCC(c2nc3cc(-c4ccc(C(=O)NC5CC5)c(F)c4)ccc3o2)CC1 [EXAMPLE-50]
ENDPOINT_NAME: melting point
ENDPOINT_RESULT: 162 to 165 °C

COMPOUND: NC(=O)c1ccc(-c2ccc3oc(C4CCN(c5ncc(F)cn5)CC4)nc3c2)cc1F [EXAMPLE-51]
ENDPOINT_NAME: melting point
ENDPOINT_RESULT: 226 to 229 °C

Value of melting point reported for the compound CC(C)OC(=O)N1CCC(c2nc3cc(-c4ccc(C(N)=O)cc4Cl)ccc3o2)CC1 [EXAMPLE-38] is 178 to 182 °C

Value of melting point reported for the compound CC(C)NC(=O)c1ccc(-c2ccc3oc(C4CCN(C(=O)OC(C)C)CC4)nc3c2)cc1F [EXAMPLE-46] is 147 to 150 °C

Memo: CC(C)C(=O)N1CCC(c2nc3cc(-c4ccc(C(N)=O)c(F)c4)ccc3o2)CC1 [EXAMPLE-43] , reported melting point: 193 to 196 °C

These data points were gathered from patent US9181214B2.
